procedure_summary: gradient 5% acetonitrile 3 min, to 50% in 2 min, to 85% in 15 min, held 3 min, 100 µL/min
measurement_setup: column: Zorbax Extend-C18 2.1 x 50 mm; eluents: water / acetonitrile, 0.1% formic acid
Reported RP-LC retention time values for the following molecules.
assay_metric: RP-LC retention time

1) CC(C)(CO)NCc1ccc(-c2ccccc2F)o1	602 s
2) O=C(NCc1ccccc1)C(=O)NCC1OCCc2ccccc21 (stereo not given)	893 s
3) O=C(c1nnc(-c2csc(S(=O)(=O)N3CCN(c4ncccn4)CC3)c2)o1)N1CCCCC1	881 s
4) Cc1ccc(-c2nnc(N3CCC(C(=O)N4CCN(CC(C)C)CC4)CC3)o2)cc1	639 s
5) O=C(NCC1(CO)CC1)c1cccc(C(F)(F)F)c1	691 s
6) CCN1CCN(c2cc(C)nc3nc(-c4ccc(C(C)(C)C)cc4)nn23)CC1	677 s
7) COc1ccc(-n2nc(C(=O)Nc3ccc4c(c3)OCCO4)c(=O)cc2OC)cc1	758 s
8) CC(C)NC(=O)Cn1c(=O)c2cnc(-c3ccccc3)nc2n(C)c1=O	802 s
9) Cc1ccc(-c2noc(-c3ccccc3S(=O)(=O)Nc3ccc(S(N)(=O)=O)cc3)n2)cc1	933 s
10) Oc1cc(-n2cccn2)c(O)cc1-n1cccn1	868 s

* * *

procedure_summary: gradient 5% acetonitrile 3 min, to 50% in 2 min, to 85% in 15 min, held 3 min, 100 µL/min
measurement_setup: column: Zorbax Extend-C18 2.1 x 50 mm; eluents: water / acetonitrile, 0.1% formic acid
Tick true if RP-LC retention time is 1000 s or greater. Tick false if RP-LC retention time is less than 1000 s.

1) Cc1ccc(N2C(=O)CN(S(=O)(=O)c3ccccc3)CC2(C)C(=O)NC2CCCC2)cc1C (centres undefined)	false
2) O=C(c1ccccn1)N1CC(n2cnnc2C2CCCO2)C1 (centres undefined)	false
3) CSc1ccc(CNC(=O)C2CCCN(c3nc4c(s3)c(C)nn4-c3ccccc3)C2)cc1 (centres undefined)	true
4) Cc1cccc(CN2C[C@@H]3C(=O)N(CCc4ccccc4)C(=O)[C@@H]3C2)c1	false
5) Cc1noc(C)c1CN1CCN(C(=O)C(C)(C)Oc2ccc(Cl)cc2)CC1	false
6) O=C(c1ccc(=O)[nH]n1)N1CCN(S(=O)(=O)C2CC2)CC1	false
7) Cc1nc(-c2cccc(-c3noc(-c4cncc(Br)c4)n3)c2)cs1	true
8) Cc1ccc(C)c(NS(=O)(=O)c2cc(-c3nc(C(C)(C)C)cs3)cs2)c1	true

* * *

procedure_summary: gradient 5% acetonitrile 3 min, to 50% in 2 min, to 85% in 15 min, held 3 min, 100 µL/min
measurement_setup: column: Zorbax Extend-C18 2.1 x 50 mm; eluents: water / acetonitrile, 0.1% formic acid
assay_metric: RP-LC retention time (s)

1. CCCCNC(=O)Cc1c(C)nn(-c2nc(-c3ccc(Cl)cc3)cs2)c1C	1180
2. Cc1cc(C)cc(OCc2nc(CCN(C)C(=O)c3cccs3)no2)c1	974
3. Cc1cc(C)cc(NC(=O)c2cn(C)nc2S(=O)(=O)N2CCSCC2)c1	1010
4. CCCn1cc(CCNC(=O)Nc2c(F)cccc2F)c2cccnc21	699
5. Cc1nn2c(CNC(=O)c3ccccc3C(F)(F)F)c(C)nc2s1	638
6. Cc1cc(C)n(-c2ncnc3c2cnn3-c2ccc(F)cc2)n1	1420
7. O=C(CN1CCC2(CC1)N=C(c1ccc(Cl)cc1)C(=O)N2)NCc1ccc2c(c1)OCO2	680
8. O=C(c1nccc2ccccc12)N1CCCCC1c1nc(C2CC2)no1 (stereo not given)	813
9. Cn1cc(S(=O)(=O)N2CCCCC2)cc1C(=O)NC1CCCCC1	953
10. O=C(Nc1nc(-c2ccc3c(c2)OCO3)cs1)c1ccco1	798
